Where do the numbers come from? From ChEMBL document CHEMBL1136837.

# System: Hepatitis C virus
# ASSAY_NOTES: Antiviral activity against Hepatitis C virus
# Type: functional, organism-based, Hepacivirus hominis
# CONDITION_SUMMARY: Hepatitis C virus
pIC50: −log10 of the molar value. Non-standard residues stand in square brackets, D forms with d. Residues, ends and D or L forms follow the SMILES beside them. *: point of attachment. Hyp(2-Ph-quinolin-4-yl) = O=C(O)[C@@H]1C[C@@H](Oc2cc(-c3ccccc3)nc3ccccc23)CN1; Dip = N[C@H](C(=O)O)C(c1ccccc1)c1ccccc1; Cha = N[C@@H](CC1CCCCC1)C(=O)O; Chg = N[C@H](C(=O)O)C1CCCCC1; Ac3c = NC1(C(=O)O)CC1; X1 = Clc1ccccc1CCN*
Recorded pIC50 by entry
ASSAY_ENDPOINT: pIC50

COMPOUND | MEASURED_VALUE
O=C(CC(O)C(=O)O)c1ccccc1 (stereo not drawn) | 4.30
CCCCOc1ccccc1C(=O)CC(=O)C(=O)O | 5.00
COc1ccc2c(O[C@@H]3C[C@H]4C(=O)N[C@]5(C(=O)O)C[C@H]5/C=C\CCCCC[C@H](NC(=O)OC(C)(C)C)C(=O)N4C3)cc(-n3ccc(C)n3)nc2c1 | 8.52
Nc1ncnc2c1ccn2[C@H]1C[C@H](OP(=O)(S)OC[C@H]2O[C@@H](n3cnc4c(N)ncnc43)C[C@@H]2O)[C@@H](CO)O1 (stereo partly drawn) | 6.00
CCNc1nc(-c2cc(O[C@@H]3C[C@H]4C(=O)N[C@]5(C(=O)O)C[C@H]5/C=C\CCCCC[C@H](NC(=O)OC5CCCC5)C(=O)N4C3)c3ccc(OC)cc3n2)cs1 | 8.54
CC(C)COC(=O)N[C@@H](CCC(=O)O)C(=O)N[C@@H](CC(C)C)C(=O)N[C@@H](CS)C(=O)NCCc1ccc(C(=O)O)cc1 | 5.70
CCCC1(CC(=O)O)OCCc2c1[nH]c1c(F)ccc(C#N)c21 (single isomer, unassigned) | 5.28
O=C(CC(=O)C(=O)O)Cc1ccco1 | 4.30
O=C(O)C(=O)CC(=O)c1ccccc1OCc1ccccc1 | 4.36
CCc1ccc(Cl)c2[nH]c3c(c12)CCOC3(CC)CC(=O)O (stereo not drawn) | 4.52
CC[C@@H]1C[C@]1(NC(=O)[C@@H]1C[C@@H](Oc2cccc(-c3ccccc3)c2)CN1C(=O)[C@@H](NC(=O)[C@@H](NC(C)=O)C1CCCCC1)C(C)C)C(=O)O | 6.92
COc1ccc2c(O[C@@H]3C[C@H]4C(=O)N[C@]5(C(=O)O)C[C@H]5/C=C\CCCCC[C@H](NC(=O)OC5CCCC5)C(=O)N4C3)cc(-n3cccc3)nc2c1 | 8.44
CCC[C@]1(CC(=O)O)OCCc2c1[nH]c1c(C)ccc(C#N)c21 | 6.48
COC(=O)C(=O)CC(=O)c1ccccc1 | 4.30
CC(C)COC(=O)N[C@@H](CCC(=O)O)C(=O)N[C@@H](CC(C)C)C(=O)N[C@@H](CS)C(=O)NCCc1ccccc1 | 4.72
CC(=O)N[C@@H](CC(=O)O)C(=O)N[C@@H](CCC(=O)O)C(=O)N[C@H](C(=O)N[C@@H](CCC(=O)O)C(=O)N[C@@H](CC1CCCCC1)C(=O)N[C@@H](CS)C(=O)NCCc1ccccc1Cl)C(c1ccccc1)c1ccccc1 (Ac-DE[Dip]E[Cha]C-X1) | 8.70
CC(=O)N[C@H](C(=O)N[C@H](C(=O)N1C[C@H](Oc2cc(-c3ccccc3)nc3ccccc23)C[C@H]1C(=O)NC1(C(=O)O)CC1)C(C)C)C1CCCCC1 (Ac-[Chg]V[Hyp(2-Ph-quinolin-4-yl)][Ac3c]-OH) | 6.43
Cc1cn([C@H]2C[C@H](OP(=O)(S)OC[C@H]3O[C@@H](n4cnc5c(N)ncnc54)C[C@@H]3O)[C@@H](COP(=O)(S)O[C@H]3C[C@H](n4ccc(N)nc4=O)O[C@@H]3CO)O2)c(=O)[nH]c1=O (stereo partly drawn) | 6.00
CC(=O)N[C@H](C(=O)N[C@H](C(=O)N1C[C@H](OCc2cccc3ccccc23)C[C@H]1C(=O)N[C@@]1(C(=O)O)C[C@@H]1C(C)C)C(C)C)C1CCCCC1 | 3.19
O=C(O)[C@H](Cc1ccccc1)N(Cc1cccc(C(F)(F)F)c1)C(=O)c1ccc(Cl)cc1Cl | 5.77
COc1ccc2c(O[C@@H]3C[C@H]4C(=O)N[C@]5(C(=O)O)C[C@H]5/C=C\CCCCC[C@H](NC(=O)OC5CCCC5)C(=O)N4C3)cc(-c3csc(N)n3)nc2c1 | 8.46
O=C(O)C(=O)CCc1ccccc1 | 4.30
CNc1nc(-c2cc(O[C@@H]3C[C@H]4C(=O)N[C@]5(C(=O)O)C[C@H]5/C=C\CCCCC[C@H](NC(=O)OC(C)(C)C)C(=O)N4C3)c3ccc(OC)cc3n2)cs1 | 8.19
